Parameter: melting point

> print(dat)
                                    compound  endpoint.result
 1               CCCCCCCCCCCNC(=O)NCc1ccccc1            97 °C
 2  Cn1cc(-c2cc(F)c(F)c(OC3SCC(O)C(O)C3O)c2)cn1 (stereo not given)           184 °C
 3          Cc1cc(C)c2cc(-c3ccccc3)c(N)nc2n1    191 to 195 °C
 4  Cc1cc2c(c3c1NC(=O)C(C)(C)C3)OC(C)(CBr)C2 (stereo not given)    158 to 160 °C
 5  CC(C)(C)N(CC(=O)O)C(=O)C(NC(=O)c1ccccc1)SC(=O)c1ccccc1 (stereo not given)    157 to 160 °C
 6  COC(=O)c1ccc(C(Cc2cc(C)ccc2N2CCCCC2)C(N)=O)cc1 (stereo not given)    124 to 126 °C
 7  Cc1noc(NS(=O)(=O)c2ccccc2-c2ccc(-c3ncco3)cc2CN(CC(F)(F)F)C(C)C)c1C      80 to 90 °C
 8  CC(C)Cn1nc(-c2ccccc2)cc(COS(C)(=O)=O)c1=O           130 °C
 9        c1cnc2c(c1)cc(-c1nnn[nH]1)c1nnnn12    280 to 282 °C
10  Cc1cc(Nc2nccc(-c3sc(N)nc3C)n2)ccc1N1CCOCC1    256 to 257 °C
11          CC(=O)c1ccc(N)c(C(=O)c2ccccc2)c1    158 to 161 °C
12              O=c1cc(CO)oc2cc(OCCCCl)ccc12    110 to 112 °C
13  CC(C(=O)O)c1ccc2c(c1)C(=O)c1ccccc1CN2C (stereo not given)    155 to 158 °C
14  COP(=O)(CC1(O)O[C@H](COCc2ccccc2)[C@@H](OCc2ccccc2)[C@H](OCc2ccccc2)[C@H]1OCc1ccccc1)OC (stereo not given in full)    112 to 113 °C
15  CCn1c(C(F)(F)F)nn(-c2cc(N)c(C(N)=S)cc2F)c1=O           161 °C
16  COCc1nn(-c2cccc(NC(C)=O)c2)c(=O)n(Cc2ccc(Cl)cc2)c1=O            97 °C
17  CC(=O)SCC(Cc1ccccc1)C(=O)NC1(C(=O)OCc2ccccc2)CCCCC1 (stereo not given)    166 to 168 °C
18    CSCCn1nc(-c2ccc(OCCCC(F)(F)F)cc2)oc1=O           105 °C
19  Cc1nc(N2CCN(Cc3ccc(C#N)cc3)C2=O)sc1C(=O)NCc1ccccc1    176 to 178 °C
20  CN(Cc1ccc(NC(=O)C2=Cc3cc(-c4ccc5c(c4)OCCCO5)ccc3S(=O)(=O)CC2)cc1)C1CCOCC1    242 to 245 °C

These data points were gathered from a melting point compilation (Tetko et al.; mined from patent text by program, amines drawn as free bases though some values may be those of a salt).
